Assay: Growth inhibition of human KB-vin10 cells after 72 hrs by methylene blue dye assay
Assay type: functional
Settings: KB-VIN10, 72 h
Overview of recorded IC50 for various compounds

{"columns": ["STRUCTURE_SMILES", "IC50, µM"],
 "data": [
  ["COc1cc2c(c(OC)c1OC)-c1ccc(OC)c(=O)cc1[C@@H](NC(C)=O)CC2", 0.12],
  ["COc1cc(C(=O)c2ccc3c(ccn3C)c2)cc(OC)c1OC", 0.0125],
  ["COc1cc(C(=O)c2ccc3c(ccn3CCN(C)C)c2)cc(OC)c1OC", 4.9],
  ["COc1cc(C(=O)c2ccc3c(ccn3CO)c2)cc(OC)c1OC", 0.035],
  ["COc1cc(C(=O)c2ccc3c(ccn3C(C)C)c2)cc(OC)c1OC", 1.6]
]}

Cited source for all entries: ChEMBL document CHEMBL1148754
